- METHOD_SUMMARY: reduction of polyQ htt aggregates in cells – imaging, exon1htt(103Q)mCFP cells, high-content imaging, primary screen (AID 483);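 also: compound exposure lasted 3 days before fixation; percent of the per-plate median nuclei count of sample wells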
- MEASUREMENT_CONDITIONS: exon1htt(103Q)mCFP cell line, aggregate imaging, at 2 µM; measured here: cell count, toxicity
OBSERVATION_TYPE: nuclei count (%)

- COMPOUND: "COCCNC(=O)C(c1ccc(C)o1)N(Cc1ccc(F)cc1)C(=O)Cn1nnc2ccccc21 (configuration not stated)"
  OBSERVATION_TYPE: "nuclei count"
  VAL: 121
- COMPOUND: "CCOC(=O)CN1CC23C=CC(O2)C(C(=O)NC2CCCC2)C3C1=O (configuration not stated)"
  OBSERVATION_TYPE: "nuclei count"
  VAL: 99.1
- COMPOUND: "CC(C)Cc1nc(S(=O)(=O)c2ccc(Cl)cc2)c(N2CCOCC2)o1"
  OBSERVATION_TYPE: "nuclei count"
  VAL: 119
- COMPOUND: "O=C(c1ccccc1Cl)N1CCc2ccccc2C1"
  OBSERVATION_TYPE: "nuclei count"
  VAL: 97.3
- COMPOUND: "CN(c1ccccc1)S(=O)(=O)c1ccc(C(=O)OCC(=O)NCc2ccco2)cc1"
  OBSERVATION_TYPE: "nuclei count"
  VAL: 112
- COMPOUND: "Cc1ccc(NC(=O)CC2C(=O)NC3CCCCC3N2C(=O)c2ccc(F)cc2)cc1C (configuration not stated)"
  OBSERVATION_TYPE: "nuclei count"
  VAL: 123
- COMPOUND: "CCn1c(=S)ccc2ccc(OC)cc21"
  OBSERVATION_TYPE: "nuclei count"
  VAL: 77.6
- COMPOUND: "COc1nc(C)ccc1-c1noc(-c2ccncc2)n1"
  OBSERVATION_TYPE: "nuclei count"
  VAL: 36.4
- COMPOUND: "O=C(CN1CCN(Cc2ccccc2F)C1=O)NCc1cccnc1"
  OBSERVATION_TYPE: "nuclei count"
  VAL: 93.5
- COMPOUND: "CCOC(=O)N1CCN(C(=O)CN(c2ccc(C)cc2)S(=O)(=O)c2c(C)noc2C)CC1"
  OBSERVATION_TYPE: "nuclei count"
  VAL: 103
- COMPOUND: "Cc1ccc(C(C(=O)NC2CCCCC2)N2CCOCC2)cc1 (configuration not stated)"
  OBSERVATION_TYPE: "nuclei count"
  VAL: 114
- COMPOUND: "Cc1ccc(-c2nnc3c4ccccc4c(C)nn23)cc1NC(=O)c1ccco1"
  OBSERVATION_TYPE: "nuclei count"
  VAL: 102
- COMPOUND: "CCCCOC(=O)Cn1c(=O)oc2ccc(C)cc21"
  OBSERVATION_TYPE: "nuclei count"
  VAL: 38
- COMPOUND: "COc1cc2c(cc1OC)-c1nnc(C)n1C1(CCCC1)C2"
  OBSERVATION_TYPE: "nuclei count"
  VAL: 132
- COMPOUND: "Cn1c(COc2ccc(Cl)cc2)nnc1SCC(=O)NC1CCCCC1"
  OBSERVATION_TYPE: "nuclei count"
  VAL: 91.8
- COMPOUND: "c1coc(CN2CN=C(Nc3nc4ccccc4s3)NC2)c1"
  OBSERVATION_TYPE: "nuclei count"
  VAL: 106
- COMPOUND: "CCc1cc2c(CN3CCN(CCO)CC3)cc(=O)oc2cc1O"
  OBSERVATION_TYPE: "nuclei count"
  VAL: 102
- COMPOUND: "O=C(O)CN1C(=O)C2(OCCCO2)c2ccccc21"
  OBSERVATION_TYPE: "nuclei count"
  VAL: 96.1
- COMPOUND: "c1ccc(OCc2nc(-c3ccccc3)no2)cc1"
  OBSERVATION_TYPE: "nuclei count"
  VAL: 87.7
- COMPOUND: "COc1ccccc1OCCCCNCCO"
  OBSERVATION_TYPE: "nuclei count"
  VAL: 103
- COMPOUND: "Cc1c(C(=O)Nc2cnccn2)oc2ccccc12"
  OBSERVATION_TYPE: "nuclei count"
  VAL: 95.3
- COMPOUND: "COc1ccc(CNc2ccc(C(=O)O)cc2)cc1"
  OBSERVATION_TYPE: "nuclei count"
  VAL: 116
- COMPOUND: "Cc1nnc(NCCc2ccccc2)n(N)c1=O"
  OBSERVATION_TYPE: "nuclei count"
  VAL: 106
- COMPOUND: "Cn1c(/C=N/n2cnnc2)nc2ccccc21"
  OBSERVATION_TYPE: "nuclei count"
  VAL: 114
- COMPOUND: "COc1ccc(CNCC(=O)Nc2cc(C)nn2-c2nc(C)cc(C)n2)cc1OC"
  OBSERVATION_TYPE: "nuclei count"
  VAL: 104
- COMPOUND: "CC1CCc2nn(CC(=O)Nc3ccc(F)cc3F)cc2C1 (configuration not stated)"
  OBSERVATION_TYPE: "nuclei count"
  VAL: 41.3
- COMPOUND: "CCN(CC)S(=O)(=O)c1ccc(NC2c3ccccc3C(=O)N2CCN2CCOCC2)cc1 (configuration not stated)"
  OBSERVATION_TYPE: "nuclei count"
  VAL: 95.3
- COMPOUND: "Cc1cc(C(=O)NCCCN2CCN(C3CCCCC3)CC2)n(-c2ccccc2)n1"
  OBSERVATION_TYPE: "nuclei count"
  VAL: 101
- COMPOUND: "CCN(CC)c1ccc(-c2c(C#N)c(N)nc(OC)c2C#N)cc1"
  OBSERVATION_TYPE: "nuclei count"
  VAL: 112
- COMPOUND: "O=C(Nc1cccnc1)c1cccc(NC(=O)c2ccco2)c1"
  OBSERVATION_TYPE: "nuclei count"
  VAL: 104
- COMPOUND: "COCCN(CCOC)S(=O)(=O)c1ccc(C(=O)Nc2nnc(C3CC3)o2)cc1"
  OBSERVATION_TYPE: "nuclei count"
  VAL: 102
- COMPOUND: "O=C1N(CCCCN2C(=O)C3(OCCO3)c3ccccc32)c2ccccc2C12OCCO2"
  OBSERVATION_TYPE: "nuclei count"
  VAL: 104
- COMPOUND: "CCc1nc(N)c(C#N)c(-c2ccc(OC)c(OC)c2)c1C"
  OBSERVATION_TYPE: "nuclei count"
  VAL: 98.5
- COMPOUND: "C(=N/n1c2ccccc2c2ccccc21)/c1ccco1"
  OBSERVATION_TYPE: "nuclei count"
  VAL: 102
- COMPOUND: "CCOC(=O)CN1CC23C=CC(O2)C(C(=O)Nc2ccc(C(C)=O)cc2)C3C1=O (configuration not stated)"
  OBSERVATION_TYPE: "nuclei count"
  VAL: 127
- COMPOUND: "O=C(CN1CCN(Cc2ccccc2)CC1)Nc1ccc(Cl)cn1"
  OBSERVATION_TYPE: "nuclei count"
  VAL: 81.8
- COMPOUND: "CC1CCN(CCn2c(=S)[nH]c3ncccc3c2=O)CC1"
  OBSERVATION_TYPE: "nuclei count"
  VAL: 115
- COMPOUND: "c1ccc(C(Cc2nc(-c3ccccn3)no2)c2ccccc2)cc1"
  OBSERVATION_TYPE: "nuclei count"
  VAL: 110
- COMPOUND: "COc1ccc(OC)c(C(C)NC=O)c1 (configuration not stated)"
  OBSERVATION_TYPE: "nuclei count"
  VAL: 108
- COMPOUND: "COc1ccccc1-c1nnc(SCc2ccccn2)n1C"
  OBSERVATION_TYPE: "nuclei count"
  VAL: 97.6
- COMPOUND: "CC1(C)CC(=O)C=C(NC2CCS(=O)(=O)C2)C1 (configuration not stated)"
  OBSERVATION_TYPE: "nuclei count"
  VAL: 59.6
- COMPOUND: "CCCCOc1ccc(S(=O)(=O)n2c(C)nc3ccccc32)cc1"
  OBSERVATION_TYPE: "nuclei count"
  VAL: 102
- COMPOUND: "Cc1cc(NC(=O)CSc2nc(CCC3CCCC3)nc3ccccc23)no1"
  OBSERVATION_TYPE: "nuclei count"
  VAL: 113
- COMPOUND: "COc1nc(NCCc2ccc(OC)c(OC)c2)nc(NC(C)(C)CO)n1"
  OBSERVATION_TYPE: "nuclei count"
  VAL: 97.3
- COMPOUND: "COc1ccc(-c2nc(CS(=O)CC(=O)NCc3ccccn3)c(C)o2)cc1 (configuration not stated)"
  OBSERVATION_TYPE: "nuclei count"
  VAL: 104
- COMPOUND: "COc1ccc(N2CCN(C(=O)COc3ccc4ccccc4c3)CC2)cc1"
  OBSERVATION_TYPE: "nuclei count"
  VAL: 93.8
- COMPOUND: "COC(=O)C1=C(C)NC(=O)C1(Nc1ccc(Cl)cn1)C(F)(F)F (configuration not stated)"
  OBSERVATION_TYPE: "nuclei count"
  VAL: 95.1

Ref: PubChem BioAssay
